In this section we review reported apparent KD of MS2 coat protein values for a set of sequences.
test system: MS2 coat protein; test: apparent KD of MS2 coat protein; designed switch direction (-1 OFF switch, 1 ON switch): -1; higher = weaker reporter binding; details: Eterna round: R95; input ligand: none
# number then unit; no other words

Name the recorded apparent KD of MS2 coat protein for UAUAAAAUAUAGGAUAUCGAAUAUAUUAUUUAACGAGAAGGAUGAACAUGAGGAUCACCCAUGUGGUAUCAUGG [Mat - Exclusion 6 - JL Mod - D37] (puzzle: Exclusion 6) .
415 nM

Name the recorded apparent KD of MS2 coat protein for AAGAAACAUGAGGAUCACCCAUGUGAGGAUAUGUAAAGAAAAGAAAAAGAAAAGAAAAACAGAAGGCACAAAGA [JR_Exclusion1_Sub001] (puzzle: Exclusion 1) .
34 nM

Name the recorded apparent KD of MS2 coat protein for AGUAGUAGUAUCCGUUCUUACAUGAGGAUCACCCAUGUUUCUAGACGUGCACGCGAUGCUCGUCAGACUACCAGAUG [salish99_TOv1_r3_054] (puzzle: Sensor v3, turn-off variant 1) .
68.9 nM

Name the recorded apparent KD of MS2 coat protein for GAAUAGGCAGGAUAUACAUGAGGAUCACCCAUGUGCAACCGAAAGGAACGUCCGAAAGGUAGAAGGGCCUAAAC [ChP 13.04.2015 #9] (puzzle: Exclusion 3) .
19.6 nM

More entries:
Name the recorded apparent KD of MS2 coat protein for AAACGUGCGAAGGAUAUCCAUCCACCCUGGAAAGGAGAAGGUCGCACAUGAGGAUCACCCAUGUGUGCCUAAAA [Zalave] (puzzle: Exclusion 6) .
11.8 nM
